Target: UniProtKB O70127
Test: Inhibition of BSEP activity (transport of glycocholate) in rat hepatocytes
Conditions: hepatocytes in suspension, probe glycocholate
measuredAttribute: inhibition at 1 h, 1 μM

Worked set:
COC(=O)N[C@H](C(=O)N[C@@H](Cc1ccccc1)[C@@H](O)CN(Cc1ccc(-c2ccccn2)cc1)NC(=O)[C@@H](NC(=O)OC)C(C)(C)C)C(C)(C)C ... > 50%
CC[C@]1(O)C[C@@H]2CN(CCc3c([nH]c4ccccc34)[C@@](C(=O)OC)(c3cc4c(cc3OC)N(C)[C@H]3[C@@](O)(C(=O)OC)[C@H](OC(C)=O)[C@]5(CC)C=CCN6CC[C@]43[C@@H]65)C2)C1 ... < 50%
CC(=O)N1CCN(c2ccc(OCC3COC(Cn4ccnc4)(c4ccc(Cl)cc4Cl)O3)cc2)CC1 (stereo not shown) ... < 50%

The following compounds each have a reported value; give each one's inhibition at 1 h, 1 μM.
1. O=c1c(O)c(-c2ccc(O)c(O)c2)oc2cc(O)cc(O)c12
2. Cc1c(C)c2c(c(C)c1O)CCC(C)(COc1ccc(CC3SC(=O)NC3=O)cc1)O2 (stereo not shown)
3. Cc1c(O)cccc1C(=O)N[C@@H](CSc1ccccc1)[C@H](O)CN1C[C@H]2CCCC[C@H]2C[C@H]1C(=O)NC(C)(C)C
4. CC(C)NCC(O)COc1cccc2ccccc12 (stereo not shown)
5. C=C[C@H]1C[N@@]2CC[C@H]1C[C@@H]2[C@@H](O)c1ccnc2ccc(OC)cc12
6. OC(Cn1cncn1)(Cn1cncn1)c1ccc(F)cc1F
7. C[C@@H](Oc1cc(-c2cnn(C3CCNCC3)c2)cnc1N)c1c(Cl)ccc(F)c1Cl

Completion:
1. < 50%
2. > 50%
3. < 50%
4. < 50%
5. < 50%
6. < 50%
7. < 50%

----------
For each entry below, report its IC50 value.
Biological target: BSEP (Rattus norvegicus)
Sequence (O70127 1-1321): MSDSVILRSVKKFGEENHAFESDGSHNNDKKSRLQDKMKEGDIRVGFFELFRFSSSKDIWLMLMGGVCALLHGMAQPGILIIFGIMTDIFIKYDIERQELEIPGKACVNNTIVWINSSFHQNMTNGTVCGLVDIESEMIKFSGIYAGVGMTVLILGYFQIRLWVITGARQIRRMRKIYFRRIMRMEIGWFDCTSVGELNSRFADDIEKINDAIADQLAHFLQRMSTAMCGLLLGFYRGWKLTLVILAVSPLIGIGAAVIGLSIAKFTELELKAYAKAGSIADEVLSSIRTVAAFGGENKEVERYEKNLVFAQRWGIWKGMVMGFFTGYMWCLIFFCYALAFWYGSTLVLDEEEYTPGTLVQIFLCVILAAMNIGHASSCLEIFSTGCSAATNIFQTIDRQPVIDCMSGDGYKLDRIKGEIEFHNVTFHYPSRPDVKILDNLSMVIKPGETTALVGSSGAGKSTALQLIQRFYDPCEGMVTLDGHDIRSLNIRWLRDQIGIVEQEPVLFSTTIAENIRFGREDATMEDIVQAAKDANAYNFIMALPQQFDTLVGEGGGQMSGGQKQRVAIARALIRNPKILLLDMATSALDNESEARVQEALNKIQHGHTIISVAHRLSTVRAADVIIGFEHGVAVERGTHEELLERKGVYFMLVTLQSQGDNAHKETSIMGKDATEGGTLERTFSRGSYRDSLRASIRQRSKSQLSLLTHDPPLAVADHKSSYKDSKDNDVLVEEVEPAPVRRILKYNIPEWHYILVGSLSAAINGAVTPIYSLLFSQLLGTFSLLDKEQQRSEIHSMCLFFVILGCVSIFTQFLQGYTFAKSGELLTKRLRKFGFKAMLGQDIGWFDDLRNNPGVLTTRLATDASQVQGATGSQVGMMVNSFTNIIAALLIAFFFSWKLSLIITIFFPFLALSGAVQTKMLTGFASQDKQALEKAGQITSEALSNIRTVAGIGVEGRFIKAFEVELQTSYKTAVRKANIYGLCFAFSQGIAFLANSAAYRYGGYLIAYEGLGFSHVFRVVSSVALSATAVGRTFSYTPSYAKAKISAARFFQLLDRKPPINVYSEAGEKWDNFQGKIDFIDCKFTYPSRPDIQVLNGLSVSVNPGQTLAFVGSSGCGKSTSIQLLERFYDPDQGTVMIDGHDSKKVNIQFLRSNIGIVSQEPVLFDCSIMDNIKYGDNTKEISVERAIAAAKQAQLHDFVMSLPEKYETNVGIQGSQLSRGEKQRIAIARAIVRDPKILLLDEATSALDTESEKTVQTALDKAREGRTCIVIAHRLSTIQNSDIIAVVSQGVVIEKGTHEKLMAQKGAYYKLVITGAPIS
Assay: IC50 for inhibition of BSEP activity in rat hepatocytes

Example entries begin here.
Cc1c(C)c2c(c(C)c1O)CCC(C)(COc1ccc(CC3SC(=O)NC3=O)cc1)O2 (stereo not drawn) ... 1 to 10 µM
CC(=O)N1CCN(c2ccc(OCC3COC(Cn4ccnc4)(c4ccc(Cl)cc4Cl)O3)cc2)CC1 (stereo not drawn) ... > 10 µM

Prompt: Item "CO[C@H]1/C=C/O[C@@]2(C)Oc3c(C)c(O)c4c(O)c(c(/C=N/N5CCN(C)CC5)c(O)c4c3C2=O)NC(=O)/C(C)=C\C=C\[C@H](C)[C@H](O)[C@@H](C)[C@@H](O)[C@@H](C)[C@H](OC(C)=O)[C@@H]1C" has what recorded IC50?
Completion: 1 to 10 µM

Where do these numbers come from? They come from patent US10481149B2.
